- test-details: Urinary excretion of phenolic metabolites after intake of the GCPE nutraceutical
- protocol-conditions: week 0, interval 9–11 h
Rule: Amount excreted in urine, 9-11 h below 0.04 µmol gives Satisfied. Equal to or above 0.04 µmol gives Not satisfied.

Consider the worked cases shown below.
compound="O=C(O)CCc1ccc(O)c(O)c1 [DHCA, 3-(3′,4′-Dihydroxyphenyl)propanoic acid]" classification="Not satisfied"
compound="O=C(O)CCc1ccc(OS(=O)(=O)O)cc1 [DHCoA-4′-sulfate, 3-(Phenyl)propanoic acid-4′-sulfate]" classification="Not satisfied"
compound="O=C(O)CCc1ccc(O[C@@H]2O[C@H](C(=O)O)[C@@H](O)[C@H](O)[C@H]2O)cc1 [DHCoA-4′-glucuronide, 3-(Phenyl)propanoic acid-4′-glucuronide]" classification="Not satisfied"

Does O=C(O)CNC(=O)c1cccc(O)c1 [3′-Hydroxyhippuric acid] have Amount excreted in urine, 9-11 h strictly under 0.04 µmol?
Not satisfied

Dear reviewer, please state whether O=C(O)Cc1cccc(O)c1 [3′-Hydroxyphenylacetic acid] has Amount excreted in urine, 9-11 h strictly beneath 0.04 µmol.
Not satisfied

Quick check: does COc1ccc(/C=C/C(=O)NCC(=O)O)cc1O [IsoFeruloylglicine] have Amount excreted in urine, 9-11 h under 0.04 µmol?
Not satisfied

Hello, is Amount excreted in urine, 9-11 h of the following compound strictly smaller than 0.04 µmol? COc1cc(/C=C/C(=O)O[C@@H]2C[C@@](O)(C(=O)O)C[C@@H](O)[C@@H]2O)ccc1O [3-Feruloylquinic acid]
Satisfied

Dear colleague, could you confirm whether Amount excreted in urine, 9-11 h of COc1cc(CCC(=O)OC2CC(O)(C(=O)O)CC(O)C2O)ccc1O (stereo not drawn) [5-Dihydroferuloylquinic acid] falls below 0.04 µmol? Thanks.
Satisfied

Say whether its Amount excreted in urine, 9-11 h is strictly beneath 0.04 µmol. Entry: COc1cc(/C=C/C(=O)NCC(=O)O)ccc1O [Feruloylglycine]
Not satisfied

Identify whether the compound COc1cc(CC(=O)O)ccc1O [4′-Hydroxy-3′-methoxyphenylacetic acid] records Amount excreted in urine, 9-11 h below 0.04 µmol.
Not satisfied

# TODO verify Amount excreted in urine, 9-11 h < 0.04 µmol strictly for this compound: O=C(O)Cc1ccc(O)c(O)c1 [3′,4′-Dihydroxyphenylacetic acid]
Not satisfied

I'd appreciate it if you could check whether COc1ccc(CCC(=O)O)cc1OS(=O)(=O)O [DHiFA-3′-sulfate] has Amount excreted in urine, 9-11 h smaller than 0.04 µmol.
Not satisfied

Strictly below 0.04 µmol in Amount excreted in urine, 9-11 h? COc1ccc(C=CC(=O)O)cc1OS(=O)(=O)O [iFA-3′-sulfate, 4′-Methoxycinnamic acid-3′-sulfate]
Not satisfied

* * *

Provide the recorded Cmax for the entries that follow.
- test-details: Plasma pharmacokinetics of phenolic metabolites after intake of the GCPE nutraceutical (LC-MS-QToF)
- protocol-conditions: week 0, GCPE nutraceutical with 300 mg hydroxycinnamic acids, mean ± SEM, n = 9
One number for each entry, in nM.

molecule="O=C(O)CNC(=O)c1cccc(O)c1 [3′-Hydroxyhippuric acid]" metric=Cmax recorded_number=1100

Dear reader, for each entry below, please note its Cmax.
1. COc1cc(/C=C/C(=O)O[C@@H]2C[C@@](O)(C(=O)O)C[C@@H](O)[C@@H]2O)ccc1O
2. COc1cc(/C=C/C(=O)OC2[C@H](O)CC(O)(C(=O)O)C[C@H]2O)ccc1O (stereo partly shown)

32
29

Please report Cmax for the following molecule: COc1cc(CCC(=O)O)ccc1O[C@@H]1O[C@H](C(=O)O)[C@@H](O)[C@H](O)[C@H]1O [DHFA-4′-glucuronide]
130

* * *

- test-details: Plasma pharmacokinetics of phenolic metabolites after intake of the GCPE nutraceutical (LC-MS-QToF)
- protocol-conditions: week 8
Assign AUC0–24h to each entry below.
One number for each entry, in µM/min.

The following molecules have reported results that may help.
molecule="O=C(O)C=Cc1ccc(OC2OC(C(=O)O)C(O)C(O)C2O)cc1 (centres unmarked) [CoA-4′-glucuronide, Cinnamic acid-4′-glucuronide]" recorded_number=0.71
molecule="COc1cc(C=CC(=O)O)ccc1OC1OC(C(=O)O)C(O)C(O)C1O (centres unmarked) [FA-4′-glucuronide, 3′-Methoxycinnamic acid-4′-glucuronide]" recorded_number=0.063
molecule="O=C(O)CNC(=O)c1cccc(O)c1 [3′-Hydroxyhippuric acid]" recorded_number=13
molecule="O=C(O)CNC(=O)c1ccc(O)cc1 [4′-Hydroxyhippuric acid]" recorded_number=1.3

Batch request: AUC0–24h for each of the following molecules.
1. COc1cc(C=CC(=O)O)ccc1OS(=O)(=O)O [FA-4′-sulfate, 3′-Methoxycinnamic acid-4′-sulfate]
2. O=C(O)Cc1cccc(O)c1 [3′-Hydroxyphenylacetic acid]
3. O=C(O)CCc1ccc(OS(=O)(=O)O)c(O)c1 [DHCA-4′-sulfate]
4. COc1cc(CC(=O)O)ccc1O [4′-Hydroxy-3′-methoxyphenylacetic acid]

0.13
1.6
2.1
1.5

Answer for every listed entry: what is its AUC0–24h? The entries follow.
1. O=C(O)Cc1ccc(O)cc1 [4′-Hydroxyphenylacetic acid]
2. COc1cc(/C=C/C(=O)NCC(=O)O)ccc1O [Feruloylglycine]
3. COc1ccc(CCC(=O)O)cc1OS(=O)(=O)O [DHiFA-3′-sulfate]
4. COc1cc(/C=C/C(=O)OC2[C@H](O)CC(O)(C(=O)O)C[C@H]2O)ccc1O (some centres unmarked) [4-Feruloylquinic acid]

1. 36
2. 0.026
3. 0.8
4. 0.07

For every item in the list below, what is its measured AUC0–24h?
1. O=C(O)/C=C/c1ccc(OS(=O)(=O)O)cc1 [CoA-4′-sulfate, Cinnamic acid-4′-sulfate]
2. COc1cc(CCC(=O)O)ccc1OS(=O)(=O)O [DHFA-4′-sulfate]
3. COc1cc(CCC(=O)O)ccc1O[C@@H]1O[C@H](C(=O)O)[C@@H](O)[C@H](O)[C@H]1O [DHFA-4′-glucuronide]

1. 0.4
2. 1.1
3. 0.8

Please give AUC0–24h for each item listed below.
1. COc1cc(/C=C/C(=O)O[C@@H]2C[C@@](O)(C(=O)O)C[C@@H](O)[C@@H]2O)ccc1O [5-Feruloylquinic acid]
2. COc1ccc(CCC(=O)O)cc1O[C@@H]1O[C@H](C(=O)O)[C@@H](O)[C@H](O)[C@H]1O [DHiFA-3′-glucuronide]

1. 0.08
2. 0.7

* * *

- test-details: Plasma pharmacokinetics of phenolic metabolites after intake of the GCPE nutraceutical (LC-MS-QToF)
- protocol-conditions: week 0, first peak where biphasic
Record form. Attribute: Tmax (h) or Range. Fill in for each entry.
One number for each entry, in h.

Here is how some compounds turned out for Tmax (h) or Range.
compound="COc1ccc(CCC(=O)O)cc1OS(=O)(=O)O [DHiFA-3′-sulfate]" recorded_number=7
compound="COc1cc(/C=C/C(=O)OC2[C@H](O)CC(O)(C(=O)O)C[C@H]2O)ccc1O (some centres unmarked)" recorded_number=0.9

State recorded Tmax (h) or Range for all listed compounds.
1. O=C(O)/C=C/c1ccc(OS(=O)(=O)O)cc1 [CoA-4′-sulfate, Cinnamic acid-4′-sulfate]
2. COc1cc(CC(=O)O)ccc1O [4′-Hydroxy-3′-methoxyphenylacetic acid]
3. O=C(O)CCc1ccc(OS(=O)(=O)O)c(O)c1 [DHCA-4′-sulfate]
4. COc1cc(CCC(=O)O)ccc1O[C@@H]1O[C@H](C(=O)O)[C@@H](O)[C@H](O)[C@H]1O [DHFA-4′-glucuronide]
5. COc1ccc(CCC(=O)O)cc1O[C@@H]1O[C@H](C(=O)O)[C@@H](O)[C@H](O)[C@H]1O [DHiFA-3′-glucuronide]
6. COc1cc(C=CC(=O)O)ccc1OS(=O)(=O)O [FA-4′-sulfate, 3′-Methoxycinnamic acid-4′-sulfate]
7. COc1cc(C=CC(=O)O)ccc1OC1OC(C(=O)O)C(O)C(O)C1O (centres unmarked) [FA-4′-glucuronide, 3′-Methoxycinnamic acid-4′-glucuronide]

1.7
7
7.9
8.7
9.0
0.78
1.2

// each compound listed below needs its Tmax (h) or Range
1. O=C(O)Cc1ccc(O)cc1 [4′-Hydroxyphenylacetic acid]
2. COc1cc(/C=C/C(=O)NCC(=O)O)ccc1O
3. COc1cc(/C=C/C(=O)O[C@@H]2C[C@@](O)(C(=O)O)C[C@@H](O)[C@@H]2O)ccc1O
4. O=C(O)Cc1cccc(O)c1 [3′-Hydroxyphenylacetic acid]
5. COc1cc(CCC(=O)O)ccc1OS(=O)(=O)O [DHFA-4′-sulfate]
6. O=C(O)C=Cc1ccc(OC2OC(C(=O)O)C(O)C(O)C2O)cc1 (centres unmarked) [CoA-4′-glucuronide, Cinnamic acid-4′-glucuronide]
7. O=C(O)CNC(=O)c1cccc(O)c1 [3′-Hydroxyhippuric acid]
8. O=C(O)CNC(=O)c1ccc(O)cc1 [4′-Hydroxyhippuric acid]

1. 2
2. 7
3. 0.9
4. 8
5. 8.1
6. 1.4
7. 10.0
8. 12
